Test: Solubility in water
Assay type: physicochemical
Settings: pH 7.4
ATTRIBUTE MEASURED: solubility (mg/mL)
Answers are plain numbers, in mg/mL.

-- ask I am curious: what solubility value has been reported for `Cc1ccc2c(c1)c1c(n2CCc2ccccc2)CCN(C)C1` ?
-- reply 194

* * *

Test: Pharmacokinetics in Rhesus monkeys
Assay type: in vivo
Conditions: rhesus monkey, in vivo, iv, 2 mg/kg, Kel, monkey 35188, IV 2 mg/kg
ATTRIBUTE MEASURED: k el (s⁻¹)
Answers are plain numbers, in s⁻¹.

-- ask I am curious: what k el value has been reported for `Cc1ccc2c(c1)c1c(n2CCc2ccccc2)CCN(C)C1` ?
-- reply 7.17e-05
